# TARGET ENTITY: human recombinant HDAC8 (Homo sapiens)
# Sequence (Q9BY41 whole entry): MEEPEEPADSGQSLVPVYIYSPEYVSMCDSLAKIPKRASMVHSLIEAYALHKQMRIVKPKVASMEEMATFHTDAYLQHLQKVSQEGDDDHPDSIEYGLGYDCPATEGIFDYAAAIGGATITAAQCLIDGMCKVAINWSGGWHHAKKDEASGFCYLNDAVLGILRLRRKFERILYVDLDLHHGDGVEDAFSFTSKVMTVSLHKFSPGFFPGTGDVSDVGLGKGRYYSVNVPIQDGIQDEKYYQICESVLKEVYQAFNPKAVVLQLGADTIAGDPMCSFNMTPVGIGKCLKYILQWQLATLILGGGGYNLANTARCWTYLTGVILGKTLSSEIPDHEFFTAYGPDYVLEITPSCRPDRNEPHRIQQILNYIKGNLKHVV
# PROTOCOL TEXT: HDAC8 inhibition, fluorogenic substrate Fluor de Lys
MEASURED PROPERTY: IC50

## Input State the measured IC50 (human recombinant HDAC8 (Homo sapiens)) of COC(=O)CCCCCCC(=O)Nc1ccc(OCc2ccccc2)cc1
## Output > 66 µM

---

# TARGET ENTITY: recombinant human HDAC3 (Homo sapiens)
# Sequence (O15379 whole entry): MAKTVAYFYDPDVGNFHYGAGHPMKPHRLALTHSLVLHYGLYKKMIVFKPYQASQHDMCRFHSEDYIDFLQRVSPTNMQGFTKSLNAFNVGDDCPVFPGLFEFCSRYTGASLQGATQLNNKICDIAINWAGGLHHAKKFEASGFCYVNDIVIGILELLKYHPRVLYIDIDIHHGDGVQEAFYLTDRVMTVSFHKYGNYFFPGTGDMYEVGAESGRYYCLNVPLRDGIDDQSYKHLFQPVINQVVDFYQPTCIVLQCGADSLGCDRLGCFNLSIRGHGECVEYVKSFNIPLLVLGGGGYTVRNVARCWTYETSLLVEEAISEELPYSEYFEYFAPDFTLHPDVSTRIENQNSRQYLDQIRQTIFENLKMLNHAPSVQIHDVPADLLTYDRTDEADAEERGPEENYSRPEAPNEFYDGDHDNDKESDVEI
# Sequence (Q9Y618 395-489 partner limits assumed): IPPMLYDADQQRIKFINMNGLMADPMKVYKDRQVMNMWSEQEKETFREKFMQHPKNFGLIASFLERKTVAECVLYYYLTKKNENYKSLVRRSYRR
# PROTOCOL TEXT: HDAC3 inhibition, fluorogenic substrate Boc-Lys
Can you tell me IC50 for the items I'm about to list?

## Input Specify IC50 for COc1cc(COc2ccc(NC(=O)CCCCCCC(=O)OCCN=[N+]=[N-])cc2)cc(N=[N+]=[N-])c1 [1h] , system recombinant human HDAC3 (Homo sapiens).
## Output > 66 µM

## Input Please tell me the measured IC50 for COc1cc(COc2ccc(NC(=O)CCCCCCC(=O)OCc3ccc(CN=[N+]=[N-])cc3)cc2)cc(N=[N+]=[N-])c1 [1i] ; system: recombinant human HDAC3 (Homo sapiens).
## Output > 66 µM

Source: paper PMC3472134
